- system.name: BCL6-NCOR2(SMRT) corepressor protein-protein interaction (Homo sapiens (Human))
- assay.text: NanoBRET cell assay
- Format: cell-based
- measurement.conditions: read-out: NanoBRET cell avg pIC50 (converted)
recorded.endpoint: log10 IC50 (log10 of the value in nM)
Please keep in mind that the values are log10 of IC50 expressed in nM.

Examples with answers:
{"molecule": "CN1CCN(c2ncc(Cl)c(Nc3ccc4c(c3)c3c(c(=O)n4C)OCC(F)(F)[C@H](C4CC4)N3)n2)CC1=O [Example 12a]", "log10 IC50": 1.27}
{"molecule": "Cn1c(=O)c2c(c3cc(Nc4ccnc(Cl)c4Cl)ccc31)N[C@@H](C1CC1)CCO2 [Example 4c]", "log10 IC50": 2.85}
{"molecule": "C[C@H]1CCOc2c(c3cc(Nc4nc(N5CCOCC5)ncc4Cl)ccc3n(C)c2=O)N1 [Example 5h]", "log10 IC50": 3.24}
{"molecule": "Cn1c(=O)c2c(c3cc(Nc4nc(N5C6CCC5CS(=O)(=O)C6)ncc4Cl)ccc31)N[C@@H](C1CC1)C(F)(F)CO2 [Example 12w]", "log10 IC50": 1.04}

Go through the items and report each one's log10 IC50.
1. Cn1c(=O)c2c(c3cc(Nc4nc(N5C6COCC5CC(C)(O)C6)ncc4Cl)ccc31)N[C@@H](C1CC1)CCO2 (stereo partly drawn) [Example 12h]
2. Cn1c(=O)c2c(c3cc(Nc4nc(N5C6COCC5CC(O)C6)ncc4Cl)ccc31)N[C@@H](C1CC1)CCS2 (stereo partly drawn) [Example 15a]

A.
[2.16, 1.46]

Go through the items and report each one's log10 IC50.
1. Cn1c(=O)c2c(c3cc(Nc4nc(N5CCC(F)(F)CC5)ncc4Cl)cnc31)N[C@@H](C1CC1)CCO2 [Example 5s]
2. COC[C@@H]1CCCN1C(=O)c1cc(Nc2ccc3c(c2)c2c(c(=O)n3C)OCC[C@H](C)N2)c(Cl)cn1 [Example 4b]

A.
1. 2.37
2. 3.52
